hIL-23 (pSTAT3) antagonist IC50 values for the binders below.
Target: T1, human IL-23R endogenously expressed on DB cells (human, UniProt Q5VWK5 24-629)
T1 sequence (looked up): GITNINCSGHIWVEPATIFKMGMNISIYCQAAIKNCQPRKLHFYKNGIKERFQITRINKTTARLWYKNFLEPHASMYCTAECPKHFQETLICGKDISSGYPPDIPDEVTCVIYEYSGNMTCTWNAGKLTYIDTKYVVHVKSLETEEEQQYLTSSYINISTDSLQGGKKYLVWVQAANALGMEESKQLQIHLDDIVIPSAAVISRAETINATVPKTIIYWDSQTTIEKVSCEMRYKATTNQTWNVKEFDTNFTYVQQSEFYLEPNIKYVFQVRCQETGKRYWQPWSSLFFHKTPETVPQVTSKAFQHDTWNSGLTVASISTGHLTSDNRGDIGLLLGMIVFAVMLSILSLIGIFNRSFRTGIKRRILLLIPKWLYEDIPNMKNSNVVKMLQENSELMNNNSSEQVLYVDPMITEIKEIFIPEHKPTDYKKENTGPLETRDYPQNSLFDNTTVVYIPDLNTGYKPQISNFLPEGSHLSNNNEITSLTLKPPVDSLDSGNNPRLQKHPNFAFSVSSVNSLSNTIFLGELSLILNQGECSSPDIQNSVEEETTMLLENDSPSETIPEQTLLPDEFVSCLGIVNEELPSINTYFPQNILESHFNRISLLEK
Assay: cell-based or functional assay
Bridges are numbered along the chain shown (N, C = ends). [ ]: non-standard residue; d: D form. 2Nal = N[C@@H](Cc1ccc2ccccc2c1)C(=O)O; AEF = NCCOc1ccc(C[C@H](N)C(=O)O)cc1; 3Pal = N[C@@H](Cc1cccnc1)C(=O)O; Aad = N[C@@H](CCCC(=O)O)C(=O)O; αMeL = CC(C)C[C@](C)(N)C(=O)O; dOrn = NCCC[C@@H](N)C(=O)O; Dab = NCC[C@H](N)C(=O)O
Reply numerically in nM, unit not repeated.

binder: KTVWQE[AEF][2Nal][αMeL]E[Dab][3Pal]-NH2 (lactam 1-10, N-6; SMILES CC(C)C[C@]1(C)NC(=O)[C@H](Cc2ccc3ccccc3c2)NC(=O)[C@H](Cc2ccc(OCCN)cc2)NC(=O)[C@@H]2CCC(=O)N[C@@H](CCCCNC(=O)CC[C@@H](C(=O)N[C@@H](CCN)C(=O)N[C@@H](Cc3cccnc3)C(N)=O)NC1=O)C(=O)N[C@@H]([C@@H](C)O)C(=O)N[C@@H](C(C)C)C(=O)N[C@@H](Cc1c[nH]c3ccccc13)C(=O)N[C@@H](CCC(N)=O)C(=O)N2) [Compound 2]
result type: hIL-23 (pSTAT3) antagonist IC50
experimental result: 0.11

Field: next binder
hIL-23 (pSTAT3) antagonist IC50 for [dOrn]TVWQE[AEF][2Nal][αMeL][Aad][Dab][3Pal]-NH2 (lactam 1-10, N-6; SMILES CC(C)C[C@]1(C)NC(=O)[C@H](Cc2ccc3ccccc3c2)NC(=O)[C@H](Cc2ccc(OCCN)cc2)NC(=O)[C@@H]2CCC(=O)N[C@H](CCCNC(=O)CCC[C@@H](C(=O)N[C@@H](CCN)C(=O)N[C@@H](Cc3cccnc3)C(N)=O)NC1=O)C(=O)N[C@@H]([C@@H](C)O)C(=O)N[C@@H](C(C)C)C(=O)N[C@@H](Cc1c[nH]c3ccccc13)C(=O)N[C@@H](CCC(N)=O)C(=O)N2) [Compound 6] ?
0.22
